Entry source: patent EP4745136A1

Reported pIC50 by item:
Target: PTPN2 (Homo sapiens)
Sequence (P17706 1-415): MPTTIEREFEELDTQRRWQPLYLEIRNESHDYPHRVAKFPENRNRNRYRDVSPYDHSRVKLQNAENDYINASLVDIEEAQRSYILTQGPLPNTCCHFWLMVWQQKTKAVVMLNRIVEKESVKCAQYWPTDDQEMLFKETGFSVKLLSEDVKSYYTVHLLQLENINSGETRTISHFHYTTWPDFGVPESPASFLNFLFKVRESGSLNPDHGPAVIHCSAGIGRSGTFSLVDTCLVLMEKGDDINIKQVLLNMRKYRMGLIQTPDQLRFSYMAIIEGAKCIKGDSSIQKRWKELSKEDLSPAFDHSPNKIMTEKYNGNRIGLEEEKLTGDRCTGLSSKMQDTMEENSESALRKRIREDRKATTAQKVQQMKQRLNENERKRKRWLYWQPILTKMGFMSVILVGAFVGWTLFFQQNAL
Assay: PTPN2 inhibitory activity assay (HTRF)
Details: PTPN2 final concentration 1 nM, substrate 1 µM, 40 min at room temperature
From the text: The present invention employs HTRF assay to characterize the inhibitory activity of compounds against PTPN2. […] The fluorescence values of the reacted 384-well plates were read at 620 nm and 665 nm using Envision, and the IC50 value of inhibiting PTPN2 enzyme activity (PTPN 2 IC50) was fitted by nonlinear regression analysis of a four-parameter logistic equation.
pIC50: −log10 of the molar value.

- compound: "CC(C)CCN[C@H]1Cc2c(cc(O)c(N3CC(=O)NS3(=O)=O)c2F)C2CC21 (single isomer, unassigned) [Compound 2]"
  target or test system: "PTPN2 (Homo sapiens)"
  pIC50: "6.30 to 7.00"
- compound: "CC(C)(C)CCN[C@H]1Cc2c(cc(O)c(N3CC(=O)NS3(=O)=O)c2F)C2CC21 (stereo partly drawn)"
  target or test system: "PTPN2 (Homo sapiens)"
  pIC50: "≥ 7.70"

Given the entry CC(C)CCNCC1Cc2cc(O)c(N3CC(=O)NS3(=O)=O)c(F)c2/C1=C/F (single isomer, unassigned) [Compound 5] , report its measured pIC50.
6.30 to 7.00

Quick one: pIC50 of O=C1CN(c2c(O)cc3c(c2F)C[C@H](NCCCC(F)(F)F)C2CC32)S(=O)(=O)N1 (stereo partly drawn) ?
≥ 7.70

Quick one: pIC50 of O=C1CN(c2c(O)cc3c(c2F)C[C@H](NCCC2CCCC2)C2CC32)S(=O)(=O)N1 (stereo partly drawn) ?
≥ 7.70

Suppose we examine the compound CC(C)(CCN[C@H]1Cc2c(cc(O)c(N3CC(=O)NS3(=O)=O)c2F)C2CC21)C(F)(F)F (stereo partly drawn) ; what pIC50 value has been reported?
≥ 7.70

Which measured pIC50 value corresponds to CC(C)CCNCC1Cc2cc(O)c(N3CC(=O)NS3(=O)=O)c(F)c2/C1=C/F (racemic) [Compound 4] ?
≥ 7.70

What does the record list as pIC50 for CC(C)CCNCC1Cc2cc(O)c(N3CC(=O)NS3(=O)=O)c(F)c2/C1=C/F (single isomer, unassigned) [Compound 6] ?
≥ 7.70

For the compound shown here, CC(C)CCN[C@H]1Cc2c(cc(O)c(N3CC(=O)NS3(=O)=O)c2F)C2CC21 (stereo partly drawn) [Compound 1] , give the reported pIC50.
≥ 7.70
